- System: Mycobacterium vaccae 10670
- assay info: Antimicrobial activity (MIC), test strain Mycobacterium vaccae 10670
- Assay type: cell-based
- test parameters: Mycolicibacterium vaccae; Test strain: Mycobacterium vaccae 10670; read-out: Antimicrobial MIC value, Mycobacterium vaccae
metric name: MIC

Illustrative cases are given below, each with its answer.
>  <compound>
C#Cc1cc2oc(=O)c3c(O)c4cccc(O[C@@H]5OC(C)[C@H](O)[C@H](O)C5O[C@H]5OC(C)[C@H](O)C(OC)[C@H]5O)c4c4oc(=O)c(c1)c2c34 (some centres unmarked)

>  <MIC>
19.2 µM

$$$$
>  <compound>
C#Cc1ccc2oc(=O)c3c(O)c4cccc(O[C@@H]5OC(C)[C@H](O)[C@H](O)C5O[C@H]5OC(C)[C@H](O)C(OC)[C@H]5O)c4c4oc(=O)c1c2c34 (some centres unmarked)

>  <MIC>
19.2 µM

$$$$
>  <compound>
CCc1ccc2oc(=O)c3c(O)c4cccc(O[C@@H]5OC(C)[C@H](O)C(O)C5O[C@H]5OC(C)[C@H](O)C(OC)C5O)c4c4oc(=O)c1c2c34 (some centres unmarked)

>  <MIC>
9.6 µM

$$$$
>  <compound>
COC1[C@@H](O)C(C)O[C@H](OC2[C@H](Oc3cccc4c(O)c5c(=O)oc6cc(Br)cc7c(=O)oc(c34)c5c67)OC(C)[C@H](O)[C@@H]2O)[C@@H]1O (some centres unmarked)

>  <MIC>
17.7 µM

$$$$

// returns reported MIC for input C=Cc1cc2oc(=O)c3c(O)c4cccc(O[C@@H]5OC(C)[C@H](O)[C@H](O)C5O[C@H]5OC(C)[C@H](O)C(OC)[C@H]5O)c4c4oc(=O)c(c1)c2c34 (some centres unmarked)
19.2 µM

Let us now turn to CCc1cc2oc(=O)c3c(O)c4cccc(O[C@@H]5OC(C)[C@H](O)[C@H](O)C5O[C@H]5OC(C)[C@H](O)C(OC)[C@H]5O)c4c4oc(=O)c(c1)c2c34 (some centres unmarked)
19.1 µM

Subsequent entry: COC1[C@@H](O)C(C)O[C@H](OC2[C@H](Oc3cccc4c(O)c5c(=O)oc6cc(C)cc7c(=O)oc(c34)c5c67)OC(C)[C@H](O)[C@@H]2O)[C@@H]1O (some centres unmarked)
4.87 µM

Then this compound: C=Cc1ccc2oc(=O)c3c(O)c4cccc(O[C@@H]5OC(C)[C@H](O)[C@H](O)C5O[C@H]5OC(C)[C@H](O)C(OC)[C@H]5O)c4c4oc(=O)c1c2c34 (some centres unmarked)
4.8 µM

###

- assay info: Cytotoxicity against HeLa
- test parameters: human, HeLa cells (human cervix carcinoma, DSM ACC 57)
metric name: CC50 (µM)
Only the number, expressed in µM, is required.

Example results:
>  <molecule>
O=C(Oc1c2cccc(OC(=O)N3CCC(N4CCCCC4)CC3)c2c2oc(=O)c3c(Br)ccc4oc(=O)c1c2c43)N1CCC(N2CCCCC2)CC1

>  <metric name>
CC50

>  <test value>
20.2

$$$$
>  <molecule>
COC1[C@@H](O)C(C)O[C@H](OC2[C@H](Oc3cccc4c(O)c5c(=O)oc6ccc(O)c7c(=O)oc(c34)c5c67)OC(C)[C@H](O)[C@@H]2O)[C@@H]1O (some centres unmarked)

>  <metric name>
CC50

>  <test value>
25.5

$$$$
>  <molecule>
COC1[C@@H](O)C(C)O[C@H](OC2[C@H](Oc3cccc4c(O)c5c(=O)oc6cc(C)cc7c(=O)oc(c34)c5c67)OC(C)[C@H](O)[C@@H]2O)[C@@H]1O (some centres unmarked)

>  <metric name>
CC50

>  <test value>
14.2

$$$$

So what's the measured CC50 for this one? CCc1cc2oc(=O)c3c(O)c4cccc(O[C@@H]5OC(C)[C@H](O)[C@H](O)C5O[C@H]5OC(C)[C@H](O)C(OC)[C@H]5O)c4c4oc(=O)c(c1)c2c34 (some centres unmarked)
58.1

Similarly, CCc1ccc2oc(=O)c3c(O)c4cccc(O[C@@H]5OC(C)[C@H](O)C(O)C5O[C@H]5OC(C)[C@H](O)C(OC)C5O)c4c4oc(=O)c1c2c34 (some centres unmarked) ?
23.1

###

// reported MIC per item
- System: Mycobacterium vaccae 10670
- assay info: Antimicrobial activity (MIC), test strain Mycobacterium vaccae 10670
- Format: cell-based
- test parameters: Mycolicibacterium vaccae; Test strain: Mycobacterium vaccae 10670; read-out: Antimicrobial MIC value, Mycobacterium vaccae
Answer with a number only, understood to be in µM.

In the examples that follow, each entry is paired with its recorded MIC.
>  <compound>
COc1ccc2oc(=O)c3c(O)c4cccc(O[C@@H]5OC(C)[C@H](O)[C@H](O)C5O[C@H]5OC(C)[C@H](O)C(OC)[C@H]5O)c4c4oc(=O)c1c2c34 (some centres unmarked)

>  <target desc>
Mycobacterium vaccae 10670

>  <unit spec>
µM

>  <test value>
76

$$$$
>  <compound>
COC1[C@@H](O)C(C)O[C@H](OC2[C@H](Oc3cccc4c(O)c5c(=O)oc6ccc(Br)c7c(=O)oc(c34)c5c67)OC(C)[C@H](O)[C@@H]2O)[C@@H]1O (some centres unmarked)

>  <target desc>
Mycobacterium vaccae 10670

>  <unit spec>
µM

>  <test value>
8.9

$$$$
>  <compound>
COC1[C@@H](O)C(C)O[C@H](OC2[C@H](Oc3cccc4c(O)c5c(=O)oc6ccc(O)c7c(=O)oc(c34)c5c67)OC(C)[C@H](O)[C@@H]2O)[C@@H]1O (some centres unmarked)

>  <target desc>
Mycobacterium vaccae 10670

>  <unit spec>
µM

>  <test value>
2.4

$$$$

// MIC lookup, key: COC1[C@@H](O)C(C)O[C@H](OC2[C@H](Oc3cccc4c(O)c5c(=O)oc6cccc7c(=O)oc(c34)c5c67)OC(C)[C@H](O)[C@@H]2O)[C@@H]1O (some centres unmarked)
2.5

// query: CO[C@H]1[C@@H](O)[C@@H](C)O[C@H](O[C@H]2[C@H](Oc3cccc4c(O)c5c(=O)oc6ccc(C)c7c(=O)oc(c34)c5c67)O[C@H](C)[C@H](O)[C@@H]2O)[C@@H]1O
1.2

###

- assay info: Cytotoxicity against HeLa
- test parameters: human, HeLa cells (human cervix carcinoma, DSM ACC 57)
metric name: CC50 (µM)
Enter your answer as a number in µM; do not include the unit.

If you can, please state the reported CC50 value of COC1[C@@H](O)C(C)O[C@H](OC2[C@H](Oc3cccc4c(O)c5c(=O)oc6cc(Br)cc7c(=O)oc(c34)c5c67)OC(C)[C@H](O)[C@@H]2O)[C@@H]1O (some centres unmarked) [(1→2)Abeobromchartreusin, (1→2)-Abeo-bromochartreusin] .
26.1

###

- assay info: Cytotoxicity against HeLa
- test parameters: human, HeLa cells (human cervix carcinoma, DSM ACC 57)
metric name: CC50

Would you please look over these solved cases?
>  <molecule>
Cc1ccc2oc(=O)c3c(OC(=O)N4CCC(N5CCCCC5)CC4)c4cccc(OC(=O)N5CCC(N6CCCCC6)CC5)c4c4oc(=O)c1c2c34

>  <CC50>
10.1 µM

$$$$
>  <molecule>
COc1ccc2oc(=O)c3c(O)c4cccc(O[C@@H]5OC(C)[C@H](O)[C@H](O)C5O[C@H]5OC(C)[C@H](O)C(OC)[C@H]5O)c4c4oc(=O)c1c2c34 (some centres unmarked)

>  <CC50>
> 76 µM

$$$$
>  <molecule>
COC1[C@@H](O)C(C)O[C@H](OC2[C@H](Oc3cccc4c(O)c5c(=O)oc6cccc7c(=O)oc(c34)c5c67)OC(C)[C@H](O)[C@@H]2O)[C@@H]1O (some centres unmarked)

>  <CC50>
70.7 µM

$$$$

If you can, please state the reported CC50 value of COC1[C@@H](O)C(C)O[C@H](OC2[C@H](Oc3cccc4c(O)c5c(=O)oc6ccc(Br)c7c(=O)oc(c34)c5c67)OC(C)[C@H](O)[C@@H]2O)[C@@H]1O (some centres unmarked) .
48.2 µM

// same read-out, input: C=Cc1ccc2oc(=O)c3c(O)c4cccc(O[C@@H]5OC(C)[C@H](O)[C@H](O)C5O[C@H]5OC(C)[C@H](O)C(OC)[C@H]5O)c4c4oc(=O)c1c2c34 (some centres unmarked)
24.7 µM

###

Entries and their measured log10 of GI50 follow.
- Tested on: human chronic myeloid leukemia cells K-562 (DSM ACC 10)
- assay info: Growth inhibition (antiproliferative effect) of K-562
- Format: cell-based
- test parameters: Homo sapiens, K562; read-out: antiproliferative GI50, K-562
All values: base-10 log of GI50 in µM.

Example entries and their recorded answers appear below.
>  <compound>
CCc1ccc2oc(=O)c3c(O)c4cccc(O[C@@H]5OC(C)[C@H](O)C(O)C5O[C@H]5OC(C)[C@H](O)C(OC)C5O)c4c4oc(=O)c1c2c34 (stereo partly shown)

>  <target desc>
human chronic myeloid leukemia cells K-562 (DSM ACC 10)

>  <log10 of GI50>
0.33

$$$$
>  <compound>
CCc1cc2oc(=O)c3c(O)c4cccc(O[C@@H]5OC(C)[C@H](O)[C@H](O)C5O[C@H]5OC(C)[C@H](O)C(OC)[C@H]5O)c4c4oc(=O)c(c1)c2c34 (stereo partly shown)

>  <target desc>
human chronic myeloid leukemia cells K-562 (DSM ACC 10)

>  <log10 of GI50>
1.06

$$$$
>  <compound>
COC1[C@@H](O)C(C)O[C@H](OC2[C@H](Oc3cccc4c(O)c5c(=O)oc6ccc(O)c7c(=O)oc(c34)c5c67)OC(C)[C@H](O)[C@@H]2O)[C@@H]1O (stereo partly shown)

>  <target desc>
human chronic myeloid leukemia cells K-562 (DSM ACC 10)

>  <log10 of GI50>
0.68

$$$$
>  <compound>
O=C(Oc1c2cccc(OC(=O)N3CCC(N4CCCCC4)CC3)c2c2oc(=O)c3c(Br)ccc4oc(=O)c1c2c43)N1CCC(N2CCCCC2)CC1

>  <target desc>
human chronic myeloid leukemia cells K-562 (DSM ACC 10)

>  <log10 of GI50>
0.97

$$$$
>  <compound>
COC1[C@@H](O)C(C)O[C@H](OC2[C@H](Oc3cccc4c(O)c5c(=O)oc6ccc(Br)c7c(=O)oc(c34)c5c67)OC(C)[C@H](O)[C@@H]2O)[C@@H]1O (stereo partly shown)

>  <target desc>
human chronic myeloid leukemia cells K-562 (DSM ACC 10)

>  <log10 of GI50>
0.94

$$$$

I am curious: what log10 of GI50 value has been reported for C=Cc1ccc2oc(=O)c3c(O)c4cccc(O[C@@H]5OC(C)[C@H](O)[C@H](O)C5O[C@H]5OC(C)[C@H](O)C(OC)[C@H]5O)c4c4oc(=O)c1c2c34 (stereo partly shown) ?
0.49

What do we get for C#Cc1ccc2oc(=O)c3c(O)c4cccc(O[C@@H]5OC(C)[C@H](O)[C@H](O)C5O[C@H]5OC(C)[C@H](O)C(OC)[C@H]5O)c4c4oc(=O)c1c2c34 (stereo partly shown) ?
1.81

Same for Cc1ccc2oc(=O)c3c(OC(=O)N4CCC(N5CCCCC5)CC4)c4cccc(OC(=O)N5CCC(N6CCCCC6)CC5)c4c4oc(=O)c1c2c34
0.50
